assayed system: CDK1 (Homo sapiens, UniProt P06493)
Sequence (P06493 whole entry, species assumed): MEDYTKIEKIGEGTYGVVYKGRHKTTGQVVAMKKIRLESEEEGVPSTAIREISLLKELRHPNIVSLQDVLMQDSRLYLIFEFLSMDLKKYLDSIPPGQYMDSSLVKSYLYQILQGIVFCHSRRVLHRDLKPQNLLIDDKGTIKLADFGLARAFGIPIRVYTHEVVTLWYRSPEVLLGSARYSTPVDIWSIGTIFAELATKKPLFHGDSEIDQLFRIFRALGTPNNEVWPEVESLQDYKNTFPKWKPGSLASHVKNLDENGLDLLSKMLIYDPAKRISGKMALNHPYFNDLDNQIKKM
Sequence (P14635 whole entry partner, species assumed): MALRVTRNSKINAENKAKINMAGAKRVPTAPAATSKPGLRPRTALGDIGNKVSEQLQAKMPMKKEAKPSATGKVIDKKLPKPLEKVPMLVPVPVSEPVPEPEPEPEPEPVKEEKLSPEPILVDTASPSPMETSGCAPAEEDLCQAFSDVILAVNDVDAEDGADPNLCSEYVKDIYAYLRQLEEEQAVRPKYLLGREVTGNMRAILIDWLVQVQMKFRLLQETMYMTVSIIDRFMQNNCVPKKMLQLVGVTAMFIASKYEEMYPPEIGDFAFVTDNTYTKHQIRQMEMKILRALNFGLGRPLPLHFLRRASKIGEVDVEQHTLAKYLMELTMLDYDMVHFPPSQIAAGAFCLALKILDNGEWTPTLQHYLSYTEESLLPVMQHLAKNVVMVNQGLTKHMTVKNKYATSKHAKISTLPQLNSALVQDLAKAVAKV
run description: CDK1 inhibition
Type: biochemical
stated conditions: Table 3
pKi: recorded values
A value of pKi is the negative decimal logarithm of a concentration given in moles per litre.

Observe how each entry below is paired with its result.
# molecule, pKi
rows = [
    ("Cc1cccc(/C=C/c2n[nH]c3cc(-c4ccncc4)ccc23)c1", 6.05),
    ("Fc1ccccc1/C=C/c1n[nH]c2cc(-c3ccncc3)ccc12", 5.89),
    ("Fc1cccc(/C=C/c2n[nH]c3cc(-c4ccncc4)ccc23)c1", 6.41),
    ("C(=C\\c1n[nH]c2cc(-c3ccnc4[nH]ccc34)ccc12)/c1ccccc1", 7.39),
    ("C(=N\\n1cccc1)/c1n[nH]c2cc(-c3ccncc3)ccc12", 6.84),
    ("C(=C\\c1n[nH]c2cc(-c3ccncc3)ccc12)/c1ccc2c(c1)OCO2 [Example 29(r)]", 7.18),
    ("O=C(Nc1ccc(O)cc1)c1ccc2c(-c3nc4ccccc4[nH]3)n[nH]c2c1", 4.62),
    ("COc1cccc(/C=C/c2n[nH]c3cc(-c4ccncc4)ccc23)c1 [Example 29(e)]", 6.23),
]

Could you now look at the following molecule, please?
In: What value of pKi has been recorded for this entry: C(=C\c1n[nH]c2cc(-c3ccncc3)ccc12)/c1ccccc1
Out: 6.65
